The entries below come with measured IC50 values attached.
tested on: K562 cells; test: MTT anti-proliferative assay, K562; format: cell-based; settings: Homo sapiens, Table 2, 48 h, read-out: IC50 ± SD, K562
Experimental readout: IC50 (µM)

• O=C(CN1CCN(c2ccccc2)CC1)Nc1n[nH]c2ccc(-c3cc(F)cc(F)c3)cc12 = 11.2
• O=C(CN1CCN(c2ccc(Br)cc2)CC1)Nc1n[nH]c2ccc(-c3cc(F)cc(F)c3)cc12 = 13.2
• O=C(CN1CCN(c2ccc(Cl)c(Cl)c2)CC1)Nc1n[nH]c2ccc(-c3cc(F)cc(F)c3)cc12 = 11.9
• O=C(CN1CCN(c2ccc(F)cc2F)CC1)Nc1n[nH]c2ccc(-c3cc(F)cc(F)c3)cc12 = 13.2

---

system: K562 cells; assay: MTT anti-proliferative assay, K562; type: cell-based; details: Homo sapiens, Table 1, 48 h, read-out: IC50 ± SD, K562
pIC50: −log10 of the molar value.
Experimental readout: pIC50

• COc1ccc(SCC(=O)Nc2n[nH]c3ccc(-c4cc(F)cc(F)c4)cc23)cc1 = 5.07
• O=C(CSc1ccc([N+](=O)[O-])cc1)Nc1n[nH]c2ccc(-c3cc(F)cc(F)c3)cc12 = 5.09

---

System: K562 cells
Assay: MTT anti-proliferative assay, K562
Type: cell-based
Conditions: Homo sapiens, Table 2, 48 h, read-out: IC50 ± SD, K562
Procedure: The antiproliferative activity of the target indazole derivatives was evaluated against a panel of human cancer cell lines (human chronic myeloid leukemia cell lines K562; human lung cancer cell lines A549; human prostate cancer cell lines PC-3; human hepatoma cell lines HepG-2) in vitro, and human embryonic kidney cell lines HEK-293 were used to evaluate the cytotoxicity of a normal cell with high activity derivatives by MTT assay. […]
The entries below come with measured IC50 values attached.
Experimental readout: IC50

- COc1ccc(-c2ccc3[nH]nc(NC(=O)CN4CCN(c5ccc(OC)cc5)CC4)c3c2)cc1: > 50 µM
- O=C(CN1CCN(c2ccccc2Cl)CC1)Nc1n[nH]c2ccc(-c3ccc(Cl)c(F)c3)cc12: > 50 µM
- O=C(CN1CCN(c2ccncc2)CC1)Nc1n[nH]c2ccc(-c3ccc(Cl)c(Cl)c3)cc12: > 50 µM

Values were extracted from paper PMC10218234.
